Target: human Fc (human)
Test: ELISA; negative control
value type: optical density (OD)
Quick reminder: number only, in OD, skip the unit.

Example cases with answers are listed next.
374_E09 (antibody, V domains shown) VH: EVQLLESGGGLVQPGGSLRLSCAASGFTFSDYSMNWVRQAPGKGLEWVSGINYNGGYKGYADSVKGRFTISRDNSKNTLYLQMNSLRAEDTAVYYCARSATWHDTHLDYWGQGTLVTVSS VL: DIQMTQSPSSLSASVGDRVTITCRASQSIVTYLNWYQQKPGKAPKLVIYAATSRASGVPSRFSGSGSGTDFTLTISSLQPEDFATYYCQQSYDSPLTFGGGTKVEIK: 0.162
374_C02 (antibody, V domains shown) VH: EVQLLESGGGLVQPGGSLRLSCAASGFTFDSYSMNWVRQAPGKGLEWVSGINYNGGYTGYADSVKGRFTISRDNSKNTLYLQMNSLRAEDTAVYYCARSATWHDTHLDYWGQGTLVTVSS VL: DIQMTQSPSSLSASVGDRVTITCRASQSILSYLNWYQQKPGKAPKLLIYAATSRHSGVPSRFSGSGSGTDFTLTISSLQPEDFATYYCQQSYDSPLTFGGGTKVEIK: 0.167
374_C08 (antibody, V domains shown) VH: EVQLLESGGGLVQPGGSLRLSCAASGFTFDSYGMNWVRQAPGKGLEWVSGINYNSGYKSYADSVKGRFTISRDNSKNTLYLQMNSLRAEDTAVYYCARSATWHDTALDYWGQGTLVTVSS VL: DIQMTQSPSSLSASVGDRVTITCRASQSILSYVNWYQQKPGKAPKLLIYAVTSRASGVPSRFSGSGSGTDFTLTISSLQPEDFATYYCQQSYDSPLTFGGGTKVEIK: 0.178
366_D02 (antibody, V domains shown) VH: EVQLLESGGGLVQPGGSLRLSCAASGFTFSSYSMNWVRQAPGKGLEWVASINYNGGYTSYADSVKGRFTISRDNSKNTLYLQMNSLRAEDTAVYYCARSATWHDTHLDYWGQGTLVTVSS VL: DIQMTQSPSSLSASVGDRVTITCRASQSILSYVNWYQQKPGKAPKLLIYATTSLASGVPSRFSGSGSGTDFTLTISSLQPEDFATYYCQQSYDLPLTFGGGTKVEIK: 0.349

Let's switch to this binder now.
Lookup: Tell me measured optical density for 374_C05 (antibody, V domains shown) VH: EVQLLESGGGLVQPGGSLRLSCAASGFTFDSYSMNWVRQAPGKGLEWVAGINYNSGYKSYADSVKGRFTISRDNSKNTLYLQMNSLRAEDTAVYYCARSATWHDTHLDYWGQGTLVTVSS VL: DIQMTQSPSSLSASVGDRVTITCRASQSIIRYLNWYQQKPGKAPKLVIYAATSRASGVPSRFSGSGSGTDFTLTISSLQPEDFATYYCQQSYDNPLTFGGGTKVEIK please.
Found: 0.175
